- Test system: Malme-3M
- assay-procedure: NCI tumour cell line growth inhibition, 48 h
Calls of active or inactive are those of the source. Cut-off read from the data, not from the text of the source: active = GI50 up to about 1.1 µM and inactive = higher.
For each entry below, report its GI50 value.

Examples with answers:
{"columns": ["molecule", "GI50"],
 "data": [
  ["CC(C)N1CN(c2ccccc2)C2(CCN(CCCC(=O)c3ccc(F)cc3)CC2)C1=O", "14.7 µM (inactive)"],
  ["CN(C)CCCNC(=O)c1cc(NC(=O)CCCn2c3ccccc3c3ccccc32)cn1C", "17.2 µM (inactive)"],
  ["Cc1c2cccc-2c(N(C)C)cc2c1[nH]c1ccccc12", "3.3 µM (inactive)"],
  ["C=CCOCCCC(=O)C(=[N+]=[N-])C(=O)OC", "> 100 µM (inactive)"],
  ["CC(=O)OCC(OC(C)=O)C(OC(C)=O)C(OC(C)=O)C(C=NN(C(C)=O)S(=O)(=O)c1ccc(/C=C2\\NC(=O)NC2=O)cc1)OC(C)=O (stereo not given)", "> 100 µM (inactive)"]
]}

Items follow; give GI50 for each.
1. C(=N\c1nc2cc3sc(/N=C/c4ccccc4)nc3cc2s1)/c1ccccc1
2. O=[N+]([O-])c1ccc(-c2cc(O)c3nc4ccccc4n3c2)cc1
3. NC(Cc1ccccc1)(C(=O)O)C(=O)O
4. CC(C)(C)OC/C=C1\C(=O)O[C@H]2C[C@@H](O[Si](C)(C)C(C)(C)C)C[C@@H]12
5. O=C(NC1CCCCC1)N1CCNC1=S

output:
1: > 65.3 µM (inactive); 2: > 100 µM (inactive); 3: > 100 µM (inactive); 4: > 100 µM (inactive); 5: > 100 µM (inactive)

---

- Test system: COLO 205
- assay-procedure: NCI tumour cell line growth inhibition, 48 h
Calls of active or inactive are those of the source. No stated cut-off is given here; in the data, active = GI50 up to about 1.1 µM and inactive = higher.
# output must be one of active, inactive

{"columns": ["compound", "label-value"],
 "data": [
  ["FC(F)(F)c1ccc2c(c1)nc(Cc1ccccc1)n2C[C@@H]1CCCN2CCCCC12 (stereo partly drawn)", "inactive"]
]}

input: I'd appreciate the recorded outcome for O=C(O)c1ccccc1NS(=O)(=O)c1ccc(Cl)cc1 from this test.
output: inactive

input: I'd appreciate the recorded outcome for O=C(Nc1ccc(Cl)cc1)c1cccc([N+](=O)[O-])c1O from this test.
output: inactive

input: I'd appreciate the recorded outcome for CC(C)(C)[Si](OC1CC(n2cnc3c(N)ncnc32)OC1CO)(c1ccccc1)c1ccccc1 (stereo not drawn) from this test.
output: inactive

input: I'd appreciate the recorded outcome for CN(C)Cc1cc(/N=N/c2ccc(Cl)cc2)ccc1O from this test.
output: inactive

input: I'd appreciate the recorded outcome for O=C(Cc1ccccc1F)NC1=C(Cl)C(=O)c2ccccc2C1=O from this test.
output: inactive

---

- System: RXF 393
- assay-procedure: NCI tumour cell line growth inhibition, 48 h
Active and inactive are the calls of the source. No stated cut-off is given here; in the data, active = GI50 up to about 1.1 µM and inactive = higher.
measurement-label: GI50

{"columns": ["molecule", "GI50"],
 "data": [
  ["CCOc1cc(NC(C)=O)ccc1C(=O)NNC(=O)c1ccccc1OC(C)=O", "3.41 µM (inactive)"],
  ["Cn1c(=O)c2c(nc3sc4nc5ccccc5nc4n32)n(C)c1=O", "> 100 µM (inactive)"],
  ["COCCNC(=O)C1C(=O)C(=O)N(CCOC)C1=O (stereo unspecified)", "> 100 µM (inactive)"]
]}

Items follow; give GI50 for each.
1. COC(=O)C1=CC2CCCC1(O)C(C(C)=O)C2 (stereo unspecified)
2. CCOP(=O)(OCC)/C(C#N)=C/c1ccc[nH]1

output:
["> 70.1 µM (inactive)", "> 100 µM (inactive)"]

input: Identify measured GI50 corresponding to O=C(/C=C/c1ccccc1)Nc1ccccc1SCCCCl
output: 8.43 µM (inactive)
